assay: Antitumor activity in vivo against the 6C3HED lymphosarcoma, dosed for 8 days at 300 mg/kg; conditions: Mus musculus, 192 h
measurementType: inhibition in vivo at 300 mg/kg (%)
Write the answer as a number in %, unit excluded.

Guide cases for inhibition in vivo at 300 mg/kg, answers given:
Cc1ccc(S(=O)(=O)NC(=O)NC2CCC(C)CC2)cc1 (configuration not stated) : 2
Cc1ccc(S(=O)(=O)NC(=O)Nc2c(F)c(F)cc(F)c2F)cc1 : 0
COc1ccc(NC(=O)NS(=O)(=O)c2ccc(C)cc2)cc1OC : 12
O=C(Nc1ccc(Cl)cc1)NS(=O)(=O)c1ccc(CO)cc1 : 15
CCCc1ccc(S(=O)(=O)NC(=O)Nc2ccc(Cl)cc2)cc1 : 79

Ask: Using the record for Cc1ccc(S(=O)(=O)NC(=O)Nc2ccc(S(N)(=O)=O)cc2)cc1 , report its inhibition in vivo at 300 mg/kg.
Reply: 27

Ask: What value of inhibition in vivo at 300 mg/kg has been recorded for this entry: Cc1ccc(S(=O)(=O)NC(=O)Nc2cc(F)cc(F)c2)cc1
Reply: 52

Ask: Request the reported inhibition in vivo at 300 mg/kg associated with Cc1ccc(S(=O)(=O)NC(=O)Nc2ccc(O)cc2)cc1
Reply: 10

Ask: Look up inhibition in vivo at 300 mg/kg: O=C(Nc1ccc(F)cc1)NS(=O)(=O)c1ccc2c(c1)CCC2
Reply: 39

Ask: # lookup: inhibition in vivo at 300 mg/kg of Cc1ccc(S(=O)(=O)NC(=O)Nc2ccc3c(c2)CCC3)cc1
Reply: 5

Ask: Given Cc1ccc(S(=O)(=O)NC(=O)Nc2nc(C)cc(C)n2)cc1 , state its recorded inhibition in vivo at 300 mg/kg.
Reply: 0

Ask: Which value of inhibition in vivo at 300 mg/kg has been reported for Cc1ccc(S(=O)(=O)NC(=O)N(C)c2ccc(Cl)cc2)cc1 in the records?
Reply: 30

Ask: // lookup inhibition in vivo at 300 mg/kg for O=C(Nc1ccc(Cl)cc1)NS(=O)(=O)c1cccnc1
Reply: 3

====

test: Antitumor activity in vivo against the 6C3HED lymphosarcoma, dosed for 8 days at 300 mg/kg; conditions: Mus musculus, 192 h
measurementType: inhibition in vivo at 300 mg/kg (%)
Expressed in %, but write only the number.

COc1cc(Cl)c(Cl)cc1NC(=O)NS(=O)(=O)c1ccc(C)cc1 : 3
Cc1ccc(S(=O)(=O)NC(=O)Nc2ccc3ccccc3c2)cc1 : 5

Now for another entry.
Ask: Value lookup for inhibition in vivo at 300 mg/kg; key = COC(=O)c1ccc(S(=O)(=O)NC(=O)Nc2ccc(Cl)cc2)cc1
Reply: 49

====

assay: Antitumor activity in vivo against the 6C3HED lymphosarcoma, dosed for 8 days at 300 mg/kg; settings: Mus musculus, 192 h
measurementType: inhibition in vivo at 300 mg/kg (%)
State the answer as a number, implicitly in %.

# count of solved cases: 5
Cc1ccc(S(=O)(=O)NC(=O)Nc2ccc(Cl)c(Cl)c2)cc1 : 100
Cc1ccc(S(=O)(=O)/N=C(\S)Nc2ccc(Cl)cc2)cc1 : 35
Cc1ccc(S(=O)(=O)NC(=O)Nc2cccc(C)c2C)cc1 : 8
COc1ccc(NC(=O)NS(=O)(=O)c2ccc(OC)cc2)cc1 : 16
CCOc1ccc(S(=O)(=O)NC(=O)Nc2ccc(Cl)cc2)cc1 : 100

Ask: Requested field: inhibition in vivo at 300 mg/kg. Item: Cc1ccc(S(=O)(=O)NC(=O)Nc2nncs2)cc1
Reply: 16

Ask: // query inhibition in vivo at 300 mg/kg value for entry CSc1ccc(NC(=O)NS(=O)(=O)c2ccc(C)cc2)cc1
Reply: 17

Ask: Consider the compound COc1cccc(S(=O)(=O)NC(=O)Nc2ccc(Cl)cc2)c1 and give its measured inhibition in vivo at 300 mg/kg.
Reply: 100

====

assay: Antitumor activity in vivo against the 6C3HED lymphosarcoma, dosed for 8 days at 300 mg/kg; details: Mus musculus, 192 h
inhibition in vivo at 300 mg/kg: recorded values

Please review the entries below; each comes with its answer.
Cc1ccc(S(=O)(=O)NC(=O)Nc2c(F)cc(F)cc2F)cc1 : 27%
Cc1ccc(S(=O)(=O)NC(=O)Nc2cccc(Cl)c2Cl)cc1 : 37%
CC(C)(C)c1ccc(S(=O)(=O)NC(=O)Nc2ccc(Cl)cc2)cc1 : 84%

Ask: What inhibition in vivo at 300 mg/kg value was documented for this compound, Cc1ccc(S(=O)(=O)NC(=O)Nc2ccc(Cl)cn2)cc1 ?
Reply: 43%

Ask: What inhibition in vivo at 300 mg/kg value was documented for this compound, Cc1ccc(S(=O)(=O)NC(=O)Nc2cc(C(C)(C)C)on2)cc1 ?
Reply: 5%

Ask: Using the record for COc1ccc(NC(=O)NS(=O)(=O)c2ccc(C)cc2)cc1Cl , report its inhibition in vivo at 300 mg/kg.
Reply: 0%

====

test: Antitumor activity in vivo against the 6C3HED lymphosarcoma, dosed for 8 days at 300 mg/kg; conditions: Mus musculus, 192 h
inhibition in vivo at 300 mg/kg values, listed per item
Answer format reminder: number followed by unit.

O=C(Nc1ccc(C(F)(F)F)cc1)NS(=O)(=O)c1ccc2c(c1)CCC2 : 71%
CCOC(=O)c1ccc(NC(=O)NS(=O)(=O)c2ccc(C)cc2)cc1 : 12%
CCCCCCCCc1ccc(S(=O)(=O)NC(=O)Nc2ccc(Cl)cc2)cc1 : 9%

Ask: Give its inhibition in vivo at 300 mg/kg value. Item: O=C(NCCc1ccccc1)NS(=O)(=O)c1ccc2ccccc2c1
Reply: 0%

Ask: I have this molecule here, Cc1ccc(S(=O)(=O)NC(=O)Nc2ccc(OCC(F)(F)F)cc2)cc1 , and I need its recorded inhibition in vivo at 300 mg/kg.
Reply: 30%

Ask: Which inhibition in vivo at 300 mg/kg is reported for this molecule? Cc1ccc(S(=O)(=O)NC(=O)Nc2nc[nH]n2)cc1
Reply: 0%

====

Measured inhibition in vivo at 300 mg/kg values are reported for all entries that follow.
experiment: Antitumor activity in vivo against the 6C3HED lymphosarcoma, dosed for 8 days at 300 mg/kg; conditions: Mus musculus, 192 h
Quick reminder: number only, in %, skip the unit.

CC(=O)c1ccc(S(=O)(=O)NC(=O)Nc2ccc(Cl)cc2)cc1 : 55
Cc1ccc(S(=O)(=O)NC(=O)NCc2ccc(Cl)cc2)cc1 : 14
CCOc1cccc(NC(=O)NS(=O)(=O)c2ccc(C)cc2)c1 : 6
Cc1ccc(S(=O)(=O)NC(=O)Nc2ccc3c(c2)C(=O)CC3)cc1 : 0
Cc1ccc(S(=O)(=O)NC(=O)Nc2ccc(S(C)(=O)=O)cc2)cc1 : 7

Ask: Which inhibition in vivo at 300 mg/kg value belongs to Cc1ccc(S(=O)(=O)NC(=O)Nc2cc(Cl)c(Cl)c(Cl)c2)cc1 ?
Reply: 44

Ask: Name the recorded inhibition in vivo at 300 mg/kg for Cc1ccc(S(=O)(=O)NC(=O)Nc2ccc(Cl)c(C(F)(F)F)c2)cc1 .
Reply: 18

====

# inhibition in vivo at 300 mg/kg per record follows
experiment: Antitumor activity in vivo against the 6C3HED lymphosarcoma, dosed for 8 days at 300 mg/kg; details: Mus musculus, 192 h
Could you kindly put the unit after your number?

Ask: Given the entry Cc1ccc(S(=O)(=O)NC(=O)Nc2ccc(Br)c(C)c2)cc1 , report its measured inhibition in vivo at 300 mg/kg.
Reply: 81%

Ask: Dear colleague, I am looking for the recorded inhibition in vivo at 300 mg/kg of the following compound: Cc1ccc(S(=O)(=O)NC(=O)Nc2ccc(Cl)c(C)c2)cc1
Reply: 85%

Ask: What value of inhibition in vivo at 300 mg/kg has been recorded for this entry: CSc1cccc(NC(=O)NS(=O)(=O)c2ccc(C)cc2)c1
Reply: 20%

Ask: // inhibition in vivo at 300 mg/kg lookup, key: Cc1ccc(S(=O)(=O)NC(=O)Nc2ncccn2)cc1
Reply: 0%

Ask: Any idea what inhibition in vivo at 300 mg/kg was measured for CCc1cccc(S(=O)(=O)NC(=O)Nc2ccc(Cl)cc2)c1 ?
Reply: 95%

Ask: Query: inhibition in vivo at 300 mg/kg; subject: Cc1ccc(S(=O)(=O)NC(=O)Nc2ccc(F)cc2)cc1
Reply: 95%

Ask: Dear colleague, I am looking for the recorded inhibition in vivo at 300 mg/kg of the following compound: Cc1ccc(S(=O)(=O)N(C)C(=O)Nc2ccc(Cl)cc2)cc1
Reply: 17%

Ask: Look at this compound and give its reported inhibition in vivo at 300 mg/kg. Cc1ccc(S(=O)(=O)NC(=O)Nc2ccc(OC(F)(F)F)cc2)cc1
Reply: 17%

Ask: For the compound Nc1ccc(S(=O)(=O)NC(=O)Nc2ccc(Cl)cc2)cc1 , what inhibition in vivo at 300 mg/kg is on record?
Reply: 43%
